Recorded EGFP object count, one value per entry.
# SYSTEM: Cellular tumor antigen p53 (Homo sapiens)
# TEST_PROTOCOL: kinase inhibitors altering GFP-p53 stability in HPV16-positive cells, imaging, known kinase inhibitor set, EGFP/DsRed ratio (AID 1053116);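 note: cells exposed to compounds for 24 h at 37 °C before reading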
# MEASUREMENT_PARAMETERS: stronger effect = higher value; measured here: GFP-p53 positive objects count
QUANTITY: EGFP object count

[
  {
    "MOLECULE": "Cn1cc(C2=C(c3cn(C)c4cc(N)ccc34)C(=O)NC2=O)c2ccccc21",
    "QUANTITY": "EGFP object count",
    "EXPERIMENTAL_RESULT": 41.5
  },
  {
    "MOLECULE": "Fc1ccc(-c2c(-c3ccncc3)[nH]c3cccnc23)cc1",
    "QUANTITY": "EGFP object count",
    "EXPERIMENTAL_RESULT": 6
  },
  {
    "MOLECULE": "O=C1Nc2ccc(F)cc2C1=Cc1ccc[nH]1",
    "QUANTITY": "EGFP object count",
    "EXPERIMENTAL_RESULT": 23
  },
  {
    "MOLECULE": "COc1cc(Nc2nccc(Nc3ccc4c(C)[nH]nc4c3)n2)cc(OC)c1OC",
    "QUANTITY": "EGFP object count",
    "EXPERIMENTAL_RESULT": 2
  },
  {
    "MOLECULE": "COc1ccccc1CCN=C1NC(=O)C(=Cc2ccc3ncccc3c2)S1",
    "QUANTITY": "EGFP object count",
    "EXPERIMENTAL_RESULT": 5
  },
  {
    "MOLECULE": "Cn1c(=O)c(Oc2ccc(F)cc2F)cc2cnc(NC3CCOCC3)nc21",
    "QUANTITY": "EGFP object count",
    "EXPERIMENTAL_RESULT": 4
  },
  {
    "MOLECULE": "COc1cc(N2CCN(C(C)C)CC2)ccc1Nc1nc(Nc2ccc(F)cc2C(=O)NC[C@@H](O)CO)c2cc[nH]c2n1",
    "QUANTITY": "EGFP object count",
    "EXPERIMENTAL_RESULT": 3.5
  },
  {
    "MOLECULE": "CN1CCC(C(=O)NC2NNC3NNC(c4ccccc4)CC32)CC1 (centres undefined)",
    "QUANTITY": "EGFP object count",
    "EXPERIMENTAL_RESULT": 24
  },
  {
    "MOLECULE": "O=C1C(c2c[nH]c3ccccc23)=C(c2c[nH]c3ccccc23)C(=O)N1O",
    "QUANTITY": "EGFP object count",
    "EXPERIMENTAL_RESULT": 5.5
  }
]

----------
# TEST_PROTOCOL: HCT116 colon cancer cell growth inhibition, primary screen, CellTiter-Glo luminescence, NPC library (AID 1117342)
# MEASUREMENT_PARAMETERS: at 20 µM (top of the series)

[
  {
    "COMPOUND": "NC[C@H]1O[C@H](O[C@@H]2[C@@H](O)[C@@H](O[C@H]3O[C@H](CO)[C@@H](O)[C@H](N)[C@@H]3O)[C@H](N)C[C@@H]2N)[C@H](O)[C@@H](O)[C@H]1O",
    "inhibition of viability, %": -13.3
  },
  {
    "COMPOUND": "CC[N+]1(CC)CCC(=C(c2ccccc2)c2ccccc2)C1C (stereo unspecified)",
    "inhibition of viability, %": 22.7
  },
  {
    "COMPOUND": "COc1ccccc1N1CCN(CCCNc2cc(=O)n(C)c(=O)n2C)CC1",
    "inhibition of viability, %": 10.8
  },
  {
    "COMPOUND": "O=C(N/N=C/c1ccccc1O)c1ccncc1",
    "inhibition of viability, %": 88.7
  },
  {
    "COMPOUND": "COc1ccc2c(c1)c(CC(=O)OC/C=C(\\C)CC/C=C(\\C)CCC=C(C)C)c(C)n2C(=O)c1ccc(Cl)cc1",
    "inhibition of viability, %": 4.5
  },
  {
    "COMPOUND": "Cc1ccc(C(=O)Oc2ccc(C(O)CNC(C)(C)C)cc2OC(=O)c2ccc(C)cc2)cc1 (stereo unspecified)",
    "inhibition of viability, %": 75.9
  },
  {
    "COMPOUND": "CCOc1ccc(S(=O)(=O)O)c2cccnc12",
    "inhibition of viability, %": -0.3
  },
  {
    "COMPOUND": "CCOC(=O)Cn1cccc1-c1nc(-c2ccc(OC)cc2)c(-c2ccc(OC)cc2)s1",
    "inhibition of viability, %": 46
  },
  {
    "COMPOUND": "NC(=S)N=Nc1ccc(NN=C(N)N)cc1",
    "inhibition of viability, %": 4.5
  },
  {
    "COMPOUND": "O=C(Nc1ccc(Cl)c(Cl)c1)C1CC1",
    "inhibition of viability, %": 43.4
  },
  {
    "COMPOUND": "CC(=O)Nc1nnc(S(N)(=O)=O)s1",
    "inhibition of viability, %": 1.7
  }
]
